# Target: Vascular endothelial growth factor receptor 2 (Homo sapiens, UniProt P35968)
# Sequence (P35968 whole entry): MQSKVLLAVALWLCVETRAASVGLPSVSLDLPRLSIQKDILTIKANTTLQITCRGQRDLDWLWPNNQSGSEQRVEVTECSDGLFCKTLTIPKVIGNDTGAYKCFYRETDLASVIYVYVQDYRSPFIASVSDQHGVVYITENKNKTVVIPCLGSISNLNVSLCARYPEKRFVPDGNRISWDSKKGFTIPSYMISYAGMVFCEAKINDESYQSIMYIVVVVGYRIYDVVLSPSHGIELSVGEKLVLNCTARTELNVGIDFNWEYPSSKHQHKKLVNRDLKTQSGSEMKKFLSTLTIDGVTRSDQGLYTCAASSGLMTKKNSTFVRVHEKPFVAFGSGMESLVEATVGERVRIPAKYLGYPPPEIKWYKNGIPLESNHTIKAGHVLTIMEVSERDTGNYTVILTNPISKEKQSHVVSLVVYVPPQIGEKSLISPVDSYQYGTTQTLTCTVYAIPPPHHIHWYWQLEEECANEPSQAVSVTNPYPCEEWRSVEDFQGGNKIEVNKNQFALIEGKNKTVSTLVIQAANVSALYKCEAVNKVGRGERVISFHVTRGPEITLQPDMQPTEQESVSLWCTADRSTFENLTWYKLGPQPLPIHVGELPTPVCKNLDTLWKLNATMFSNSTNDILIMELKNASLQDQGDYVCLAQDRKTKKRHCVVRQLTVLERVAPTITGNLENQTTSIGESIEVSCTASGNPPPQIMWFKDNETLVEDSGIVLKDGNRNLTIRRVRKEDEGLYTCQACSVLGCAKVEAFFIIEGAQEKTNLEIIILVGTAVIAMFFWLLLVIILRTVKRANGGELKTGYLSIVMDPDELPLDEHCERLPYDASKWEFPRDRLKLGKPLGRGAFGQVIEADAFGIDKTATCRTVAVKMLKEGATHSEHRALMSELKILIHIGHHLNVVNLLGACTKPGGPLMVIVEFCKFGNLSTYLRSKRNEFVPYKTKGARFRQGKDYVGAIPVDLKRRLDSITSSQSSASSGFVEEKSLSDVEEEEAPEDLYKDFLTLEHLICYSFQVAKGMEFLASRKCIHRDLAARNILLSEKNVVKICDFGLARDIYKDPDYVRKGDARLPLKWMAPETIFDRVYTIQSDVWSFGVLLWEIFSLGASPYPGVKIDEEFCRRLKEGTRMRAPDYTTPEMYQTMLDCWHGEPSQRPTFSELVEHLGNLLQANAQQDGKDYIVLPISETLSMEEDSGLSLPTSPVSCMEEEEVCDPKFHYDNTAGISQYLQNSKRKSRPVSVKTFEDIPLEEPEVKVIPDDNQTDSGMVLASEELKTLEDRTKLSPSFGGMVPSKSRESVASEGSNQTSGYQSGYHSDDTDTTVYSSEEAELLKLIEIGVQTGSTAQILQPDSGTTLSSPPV
Endpoint: IC50 (µM)

- Query smiles: "CNC(=O)c1cc(-n2ccc3cc(NC(=O)Nc4ccc(N5CCN(C)CC5)c(C(F)(F)F)c4)ccc32)ccn1"
  Measurement unit: "µM"
  Recorded number: 0.173

----------
Below, each of the molecules is paired with its reported pIC50 value.
# Test system: Huh-7
# Procedure text: Antiproliferative activity against human Huh-7 cells assessed as reduction in cell viability after 48 hrs by MTT assay
# Type: functional, cell-based
# Stated conditions: Huh-7, 48 h
pIC50: −log10 of the molar value.

- Query smiles: "CNC(=O)c1cc(-n2ccc3cc(NC(=O)Nc4ccc(N5CCN(C)CC5)c(C(F)(F)F)c4)ccc32)ccn1"
  pIC50: 5.37
- Query smiles: "CNC(=O)c1cc(-n2ccc3cc(NC(=O)Nc4ccc(N5CCOCC5)c(C(F)(F)F)c4)ccc32)ccn1"
  pIC50: 5.25
- Query smiles: "CNC(=O)c1cc(-n2ccc3cc(NC(=S)Nc4ccc(Cl)c(C(F)(F)F)c4)ccc32)ccn1"
  pIC50: 4.67

----------
# Tested on: HepG2
# Procedure text: Antiproliferative activity against human HepG2 cells assessed as cell viability at 10 uM after 48 hrs by MTT assay relative to control
# Type: functional
# Stated conditions: read-out: Activity
The entries below are paired with their reported viability at 10 µM.

- Query smiles: "CNC(=O)c1cc(-n2ccc3cc(NC(=O)Nc4ccc(N5CCOCC5)c(C(F)(F)F)c4)ccc32)ccn1"
  Target: "HepG2"
  viability at 10 µM / %: 47
- Query smiles: "CNC(=O)c1cc(-n2ccc3cc(NC(=O)Nc4ccc(F)c(C(F)(F)F)c4)ccc32)ccn1"
  Target: "HepG2"
  viability at 10 µM / %: 67
- Query smiles: "CNC(=O)c1cc(-n2ccc3cc(NC(=O)c4ccc(F)c(C(F)(F)F)c4)ccc32)ccn1"
  Target: "HepG2"
  viability at 10 µM / %: 67
- Query smiles: "CNC(=O)c1cc(-n2ccc3cc(NC(=O)c4ccc(Cl)c(Cl)c4)ccc32)ccn1"
  Target: "HepG2"
  viability at 10 µM / %: 80
- Query smiles: "CNC(=O)c1cc(-n2ccc3cc(NC(=S)Nc4cc(C(F)(F)F)cc(C(F)(F)F)c4)ccc32)ccn1"
  Target: "HepG2"
  viability at 10 µM / %: 53
- Query smiles: "CNC(=O)c1cc(-n2ccc3cc(NC(=O)c4cc(C(F)(F)F)cc(C(F)(F)F)c4)ccc32)ccn1"
  Target: "HepG2"
  viability at 10 µM / %: 90
- Query smiles: "CNC(=O)c1cc(-n2ccc3cc(NS(=O)(=O)c4ccccc4)ccc32)ccn1"
  Target: "HepG2"
  viability at 10 µM / %: 98
- Query smiles: "CNC(=O)c1cc(-n2ccc3cc(NC(=O)Nc4cccc(C(F)(F)F)c4)ccc32)ccn1"
  Target: "HepG2"
  viability at 10 µM / %: 76
- Query smiles: "CNC(=O)c1cc(-n2ccc3cc(NS(=O)(=O)c4ccc(Cl)c(Cl)c4)ccc32)ccn1"
  Target: "HepG2"
  viability at 10 µM / %: 97
